All figures here come from patent US8013006B2.

measured-attribute: melting point

> print(dat)
                                    compound  recorded.result
 1  CCn1c(-c2ccc(N)cc2)c(C#N)c2ccc(OC(C)C)cc21 [Compound 758]    149 to 153 °C
 2  CCn1c(-c2ccc(CNS(=O)(=O)CCN3CCOCC3)cc2)c(C#N)c2ccc(OC)cc21 [Compound 668]    171 to 174 °C
 3  CCn1c(C#Cc2ccccc2Cl)c(C#N)c2ccc(OC)cc21 [Compound 134]    155 to 157 °C
 4  CCn1c(-c2ccc(NC(=O)CCc3ccccc3)cc2)c(C#N)c2ccc(OC(C)C)cc21 [Compound 762]    190 to 193 °C
 5  CCn1c(C#Cc2ccc(N)cc2)c(C#N)c2ccc(C(F)(F)F)cc21 [Compound 200]    187 to 189 °C
 6  CCn1c(-c2ccc3c(c2)N(S(=O)(=O)CC)CC3)c(C#N)c2ccc(OC)cc21 [Compound 753]    157 to 161 °C
 7  COC(=O)Nc1ccc(-c2c(C#N)c3ccc(OC(F)F)cc3n2CC2CC2)cc1 [Compound 734]    167 to 169 °C
 8  CCOC(=O)Nc1ccc(-c2c(C#N)c3ccc(OC)cc3n2CCOC)cc1 [Compound 676]    174 to 175 °C
 9  CCn1c(C#Cc2cccc(NC(C)=O)c2)c(C#N)c2ccc(OC)cc21 [Compound 205]    181 to 184 °C
10  CCn1c(C#Cc2cccc(NC(=O)NCCCl)c2)c(C#N)c2ccc(OC)cc21 [Compound 221]    195 to 200 °C
11  CCn1c(C#Cc2ccc(CNS(=O)(=O)CC)cc2)c(C#N)c2ccc(OC)cc21 [Compound 157]    149 to 153 °C
12  CCS(=O)(=O)Nc1ccc(-c2c(C#N)c3ccc(OC(F)F)cc3n2CC2CC2)cc1 [Compound 614]    176 to 177 °C
13  CCn1c(C#Cc2ccc(O)cc2)c(C#N)c2ccc(OC)cc21 [Compound 172]    221 to 223 °C
14  CCOc1ccc2c(C#N)c(-c3ccc(NS(=O)(=O)CC)cc3)n(CC)c2c1 [Compound 416]    173 to 175 °C
15  COc1ccc2c(C#N)c(C#Cc3ccc(C(C)(C)C)cc3)[nH]c2c1 [Compound 233]    232 to 234 °C
16  CCCn1c(-c2ccc(NS(=O)(=O)CCC)cc2)c(C#N)c2ccc(OC)cc21 [Compound 621]    187 to 188 °C
17  CCn1c(NC(=O)OCC(C)C)c(C#N)c2ccc(OC)cc21 [Compound 217]    272 to 273 °C
18  N#Cc1c(-c2ccc(NC(=O)OCCF)cc2)n(CC2CC2)c2cc(OC(F)F)ccc12 [Compound 738]    149 to 151 °C
19  CCn1c(-c2ccc(NS(=O)(=O)CC)cc2)cc2ccc(OC(F)F)cc21 [Compound 516]    155 to 156 °C
20  CCCCNC(=O)Nc1ccc(-c2c(C#N)c3ccc(OC)cc3n2CCCC)cc1 [Compound 750]    173 to 174 °C
21  CCn1c(-c2ccc(N3CCN(Cc4ccccc4)S3(=O)=O)cc2)c(C#N)c2ccc(OC)cc21 [Compound 727]    217 to 218 °C
22  Cn1c(-c2ccc(NS(C)(=O)=O)cc2)c(C#N)c2ccc(OC(F)F)cc21 [Compound 518]    197 to 199 °C
23  CCOc1ccc2c(C#N)c(-c3ccc(NS(C)(=O)=O)cc3)n(CC(C)C)c2c1 [Compound 471]    154 to 156 °C
24  CCn1c(-c2ccc(NS(=O)(=O)C3CC3)cc2)c(C#N)c2ccc(OCCF)cc21 [Compound 552]    185 to 188 °C
25  CCOc1ccc2c(C#N)c(-c3ccc(NS(C)(=O)=O)cc3)n(C3CCC3)c2c1 [Compound 472]    215 to 217 °C
26  COc1ccc2c(C#N)c(-c3cccc(N4CCCS4(=O)=O)c3)n(C(C)C)c2c1 [Compound 784]    245 to 246 °C
27  CCn1c(-c2ccc(NS(=O)(=O)CCCCl)cc2)c(C#N)c2ccc(C(F)(F)F)cc21 [Compound 369]    174 to 177 °C
28  CCn1c(-c2ccc(CNS(C)(=O)=O)cc2)c(C#N)c2ccc(OC)cc21 [Compound 650]    165 to 166 °C
29  CCn1c(C#Cc2cccc(OC)c2)c(C#N)c2ccc(C(N)=O)cc21 [Compound 95]    248 to 251 °C
30  CCn1c(C#Cc2cccc(C)c2)c(C#N)c2ccc(OC)cc21 [Compound 144]     97 to 100 °C
31  CCCS(=O)(=O)Nc1ccc(-c2c(C#N)c3ccc(C(F)(F)F)cc3n2CC)cc1 [Compound 367]    225 to 227 °C
32  CCCn1c(-c2ccc(NS(=O)(=O)Cc3ccccc3)cc2)c(C#N)c2ccc(OC)cc21 [Compound 623]    217 to 218 °C
33  CCCS(=O)(=O)Nc1ccc(-c2c(C#N)c3cc(OC)ccc3n2CC)cc1 [Compound 789]    154 to 156 °C
34  CCn1c(-c2ccc(N3CCCC3=O)cc2)c(C#N)c2ccc(OC(F)F)cc21 [Compound 807]    171 to 172 °C
